Here the recorded remaining activity at 30 µM is given for each entry.
- System under test: rat mGlu3 (Rattus norvegicus (Rat), UniProt P31422)
- Sequence (P31422 23-879): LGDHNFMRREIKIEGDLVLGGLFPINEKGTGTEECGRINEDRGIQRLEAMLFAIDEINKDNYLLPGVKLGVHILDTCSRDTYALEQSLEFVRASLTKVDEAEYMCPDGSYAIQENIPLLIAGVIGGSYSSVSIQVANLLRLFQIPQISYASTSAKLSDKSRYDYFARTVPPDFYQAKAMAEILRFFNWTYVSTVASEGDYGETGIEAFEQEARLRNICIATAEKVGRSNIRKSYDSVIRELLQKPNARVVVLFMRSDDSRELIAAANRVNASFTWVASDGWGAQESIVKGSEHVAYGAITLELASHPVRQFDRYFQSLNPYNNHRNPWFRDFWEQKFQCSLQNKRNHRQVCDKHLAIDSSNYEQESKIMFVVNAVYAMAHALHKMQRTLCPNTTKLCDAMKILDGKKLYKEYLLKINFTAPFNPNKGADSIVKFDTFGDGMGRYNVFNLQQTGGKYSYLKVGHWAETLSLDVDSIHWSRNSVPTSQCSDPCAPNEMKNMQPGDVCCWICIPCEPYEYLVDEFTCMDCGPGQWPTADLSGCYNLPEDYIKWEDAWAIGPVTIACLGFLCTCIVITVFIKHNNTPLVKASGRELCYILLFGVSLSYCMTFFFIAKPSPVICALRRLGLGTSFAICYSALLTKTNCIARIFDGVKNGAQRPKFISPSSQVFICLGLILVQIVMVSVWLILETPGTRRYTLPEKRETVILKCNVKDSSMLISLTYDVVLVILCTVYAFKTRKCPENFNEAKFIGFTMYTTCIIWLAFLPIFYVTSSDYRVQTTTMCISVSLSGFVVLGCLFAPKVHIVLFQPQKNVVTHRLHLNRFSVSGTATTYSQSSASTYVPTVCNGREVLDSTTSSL
- Assay explanation: mGlu3 Ca2+ flux assay
- Format: cell-based
- Condition details: response at 30 μM test compound as percentage of maximal response to glutamate; read-out: rat mGlu3 Glu max (%)
Value expressed in %; do not type the unit.

Observe how each entry below is paired with its result.
>>> df
                                   compound            reported_property  result
0    O=c1cc(OCCOc2ncccc2Cl)ccn1-c1ccc(F)cc1  remaining activity at 30 µM    0.96
1  N#Cc1ccc(OCCOc2ccn(-c3ccc(F)cc3)c(=O)c2)cc1  remaining activity at 30 µM    0.74
2      O=c1nc(OCCOc2ccccc2)ccn1-c1ccc(F)cn1  remaining activity at 30 µM    23.9
3    N#Cc1cccc(-n2ccc(OCCOc3ccccc3)cc2=O)c1  remaining activity at 30 µM    1.16
4    O=c1cc(OCCOc2ccccc2Cl)ccn1-c1ccc(F)cc1  remaining activity at 30 µM    2.05
5  N#Cc1ccc(OCCOc2ccn(-c3ccc(F)cc3)c(=O)c2)nc1  remaining activity at 30 µM    1.06

// lookup remaining activity at 30 µM | system=rat mGlu3 (Rattus norvegicus (Rat), UniProt P31422) | key= `O=c1cc(OCCOc2cccnc2F)ccn1-c1ccc(F)cc1`
-4.22

Query `O=c1cc(OCCOc2cc(Cl)ccn2)ccn1-c1ccc(F)cc1` next
0.73

###

Here the recorded IC50 is given for each entry.
- System under test: rat mGlu3 (Rattus norvegicus (Rat), UniProt P31422)
- Assay explanation: mGlu3 Ca2+ flux assay
- Type: cell-based
- Condition details: NAM, glutamate EC80; >10,000 = decrease without plateau; >30,000 = no measurable activity

Observe how each entry below is paired with its result.
                                   molecule   result
0         O=c1cc(OCCOc2ccccc2)ccn1-c1ccccn1  > 30 µM
1  O=c1cc(OCC[S+]([O-])c2ccccc2)ccn1-c1ccc(F)cc1 (stereo not drawn)  > 30 µM

Alright, here's another molecule for you.
Need IC50 of `COCc1ccc(OCCOc2ccn(-c3ccc(F)cc3)c(=O)c2)cc1` , thanks.
> 10 µM

###

- System under test: rat mGlu3 (Rattus norvegicus (Rat), UniProt P31422)
- Assay explanation: mGlu3 Ca2+ flux assay
- Condition details: NAM, glutamate EC80; >10,000 = decrease without plateau; >30,000 = no measurable activity
Reported property: pIC50
The read-out pIC50 is expressed as -log10 of concentration in moles per litre.

Observe how each entry below is paired with its result.
In [3]: df
Out[3]:
                                smiles_code                         system_under_test  reported_property  result
0   O=c1cc(OCCOc2ccc(F)cc2)ccn1-c1ccc(F)cc1  rat mGlu3 (Rattus norvegicus (Rat), UniProt P31422)              pIC50    5.98
1  N#Cc1ccnc(OCCOc2ccn(-c3ccc(F)cc3)c(=O)c2)c1  rat mGlu3 (Rattus norvegicus (Rat), UniProt P31422)              pIC50    6.12

Alright, here's another compound for you.
Need pIC50 of `N#Cc1cccc(OCCOc2ccn(-c3ccc(F)cc3)c(=O)c2)c1` , thanks.
6.15

###

- System under test: rat mGlu5 (Rattus norvegicus (Rat))
- Assay explanation: mGlu5 Ca2+ flux assay
- Type: cell-based
- Condition details: PAM; response at 30 μM test compound as percentage of maximal response to glutamate; read-out: rat mGlu5 Glu max (%)
Field: label. Allowed values: yes (activity at 30 µM < 80%) or no (activity at 30 µM >= 80%).

In [3]: df
Out[3]:
                                   compound  label_value
0  O=c1cc(OCCOc2ccccc2)ccn1-c1cccc(F)c1 [Compound 19]           no
1  O=c1cc(OCCOc2ccccc2)ccn1-c1ccc(F)c(F)c1 [Compound 20]           no
2  CC(COc1ccccc1)Oc1ccn(-c2ccc(F)cc2)c(=O)c1 (centres unmarked) [Compound 5]          yes

For this compound, is activity at 30 µM lower than 80%? O=c1cc(OCCOc2cccc(F)c2F)ccn1-c1ccc(F)cc1 [Compound 33]
no

Query O=c1cc(OCCOc2ccccc2)ccn1-c1ccc(F)cc1 [Compound 18] next
no

Query O=c1nc(OCCOc2ccccc2)ccn1-c1cccc(F)c1 [Compound 14] next
yes

###

Here the recorded pIC50 is given for each entry.
- System under test: rat mGlu3 (Rattus norvegicus (Rat), UniProt P31422)
- Assay explanation: mGlu3 Ca2+ flux assay
- Condition details: NAM, glutamate EC80; >10,000 = decrease without plateau; >30,000 = no measurable activity
pIC50: −log10 of the molar value.

                                smiles_code  reported_property  result
0         O=c1cc(OCCOc2ccccc2)ccn1-c1ccncc1              pIC50  < 4.52
1  O=c1cc(OCCS(=O)(=O)c2ccccc2)ccn1-c1ccc(F)cc1              pIC50  < 4.52
2      O=c1nc(OCCOc2ccccc2)ccn1-c1ccc(F)cn1              pIC50  < 5.00
3  N#Cc1cccc(OCCOc2ccn(-c3ccc(F)cc3)c(=O)c2)n1              pIC50  < 5.00
4  N#Cc1cccnc1OCCOc1ccn(-c2ccc(F)cc2)c(=O)c1              pIC50  < 5.00
5       O=c1cc(OCCOC2CCCC2)ccn1-c1ccc(F)cc1              pIC50  < 4.52

Alright, here's another compound for you.
Need pIC50 of `O=c1cc(OCCOC2CCCCC2)ccn1-c1ccc(F)cc1` , thanks.
< 5.00

###

- System under test: UniProtKB P31422
- Assay explanation: mGlu3 Ca2+ flux assay
- Format: cell-based
- Condition details: response at 30 μM test compound as percentage of maximal response to glutamate; read-out: rat mGlu3 Glu max (%)
Reported property: remaining activity at 30 µM (%)
Value expressed in %; do not type the unit.

Observe how each entry below is paired with its result.
In [3]: df
Out[3]:
                                   compound            reported_property  result
0      O=c1cc(OCCOC2CCCCC2)ccn1-c1ccc(F)cc1  remaining activity at 30 µM    15.5
1  N#Cc1cccnc1OCCOc1ccn(-c2ccc(F)cc2)c(=O)c1  remaining activity at 30 µM      18
2   O=c1cc(OCCOc2ccccc2)ccn1-c1ccc(F)c(F)c1  remaining activity at 30 µM    1.63
3   O=c1cc(OCCOc2ccc(F)cc2)ccn1-c1ccc(F)cc1  remaining activity at 30 µM   -0.56
4   O=c1cc(OCCOc2cccc(F)c2)ccn1-c1ccc(F)cc1  remaining activity at 30 µM    1.95

Need remaining activity at 30 µM of `O=c1cc(OCCOc2ccccc2)ccn1-c1cccc(F)n1` , thanks.
33.2

Query `N#Cc1cncc(-n2ccc(OCCOc3ccccc3)cc2=O)c1` next
-5.24

Query `CN(CCOc1ccn(-c2ccc(F)cc2)c(=O)c1)c1ccccc1` next
0

Query `O=c1cc(OCCOc2cccc(F)c2F)ccn1-c1ccc(F)cc1` next
-0.23

Query `N#Cc1ccnc(OCCOc2ccn(-c3ccc(F)cc3)c(=O)c2)c1` next
-0.4

Query `O=c1cc(OCCOc2ccccc2)ccn1-c1ccccc1F` next
1.16

Query `O=c1cc(OCCOc2c(F)cccc2F)ccn1-c1ccc(F)cc1` next
-1.16

Query CC(COc1ccn(-c2ccc(F)cc2)c(=O)c1)Oc1ccccc1 (stereo not shown) next
0.69

Query `O=c1cc(OCCOc2ccc(F)cn2)ccn1-c1ccc(F)cc1` next
0.26

Query `O=c1cc(OCCSc2ccccc2)ccn1-c1ccc(F)cc1` next
1.42

Query `O=c1cc(OCCOc2ccc(Cl)cc2)ccn1-c1ccc(F)cc1` next
1.56

###

Here the recorded activity at 30 µM is given for each entry.
- System under test: rat mGlu5 (Rattus norvegicus (Rat), UniProt P31424)
- Sequence (P31424 21-1203): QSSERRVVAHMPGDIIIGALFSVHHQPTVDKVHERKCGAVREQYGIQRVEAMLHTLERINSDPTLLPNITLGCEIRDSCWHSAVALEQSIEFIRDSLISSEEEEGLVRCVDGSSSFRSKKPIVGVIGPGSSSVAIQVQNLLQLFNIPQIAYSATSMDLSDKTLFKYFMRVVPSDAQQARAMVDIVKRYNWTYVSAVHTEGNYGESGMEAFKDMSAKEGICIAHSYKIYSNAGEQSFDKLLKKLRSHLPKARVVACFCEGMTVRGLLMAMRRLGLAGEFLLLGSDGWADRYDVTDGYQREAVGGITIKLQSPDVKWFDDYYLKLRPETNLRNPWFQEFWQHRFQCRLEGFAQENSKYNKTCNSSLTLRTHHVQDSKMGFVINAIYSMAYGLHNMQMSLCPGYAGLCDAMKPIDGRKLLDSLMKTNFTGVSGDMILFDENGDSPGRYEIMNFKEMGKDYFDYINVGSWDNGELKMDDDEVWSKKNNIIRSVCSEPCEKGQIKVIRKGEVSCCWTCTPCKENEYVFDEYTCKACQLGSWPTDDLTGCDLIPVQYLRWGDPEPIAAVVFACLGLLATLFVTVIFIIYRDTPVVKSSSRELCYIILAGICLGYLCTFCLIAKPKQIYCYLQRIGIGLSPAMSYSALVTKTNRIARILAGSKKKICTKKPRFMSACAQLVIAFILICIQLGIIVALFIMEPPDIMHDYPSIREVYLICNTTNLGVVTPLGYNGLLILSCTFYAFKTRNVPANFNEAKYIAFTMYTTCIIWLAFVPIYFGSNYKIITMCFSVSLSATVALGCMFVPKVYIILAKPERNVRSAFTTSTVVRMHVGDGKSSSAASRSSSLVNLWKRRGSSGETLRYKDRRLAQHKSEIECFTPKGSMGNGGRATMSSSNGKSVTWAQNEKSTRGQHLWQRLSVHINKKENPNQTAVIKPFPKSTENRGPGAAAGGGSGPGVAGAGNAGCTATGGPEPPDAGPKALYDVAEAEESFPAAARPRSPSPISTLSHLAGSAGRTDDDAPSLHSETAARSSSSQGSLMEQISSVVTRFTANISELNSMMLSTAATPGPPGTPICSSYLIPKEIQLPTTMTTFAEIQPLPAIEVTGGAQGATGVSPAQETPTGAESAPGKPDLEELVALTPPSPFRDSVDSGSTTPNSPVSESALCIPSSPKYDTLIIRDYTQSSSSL
- Assay explanation: mGlu5 Ca2+ flux assay
- Type: cell-based
- Condition details: PAM; response at 30 μM test compound as percentage of maximal response to glutamate; read-out: rat mGlu5 Glu max (%)
Number first, unit second.

Observe how each entry below is paired with its result.
                                smiles_code                         system_under_test  reported_property  result
0   O=c1nc(OCCOc2ccccc2)ccn1-c1ccc(F)c(F)c1  rat mGlu5 (Rattus norvegicus (Rat), UniProt P31424)  activity at 30 µM     83%
1  O=c1cc(OCCOc2cc(Cl)ccn2)ccn1-c1ccc(F)cc1  rat mGlu5 (Rattus norvegicus (Rat), UniProt P31424)  activity at 30 µM   82.3%
2    N#Cc1cccc(-n2ccc(OCCOc3ccccc3)cc2=O)c1  rat mGlu5 (Rattus norvegicus (Rat), UniProt P31424)  activity at 30 µM     87%
3    O=c1cc(OCCOc2ncccc2Cl)ccn1-c1ccc(F)cc1  rat mGlu5 (Rattus norvegicus (Rat), UniProt P31424)  activity at 30 µM     94%

Alright, here's another compound for you.
Need activity at 30 µM of `O=c1cc(OCCOc2ccccc2)ncn1-c1ccc(F)cc1` , thanks.
89.8%
